Values compiled from ChEMBL document CHEMBL6182912.

Parameter fold change (FC): see the listing below.
- system under test: Solute carrier family 2, facilitated glucose transporter member 4 (Rattus norvegicus) (UniProt P19357)
- Sequence (P19357 whole entry): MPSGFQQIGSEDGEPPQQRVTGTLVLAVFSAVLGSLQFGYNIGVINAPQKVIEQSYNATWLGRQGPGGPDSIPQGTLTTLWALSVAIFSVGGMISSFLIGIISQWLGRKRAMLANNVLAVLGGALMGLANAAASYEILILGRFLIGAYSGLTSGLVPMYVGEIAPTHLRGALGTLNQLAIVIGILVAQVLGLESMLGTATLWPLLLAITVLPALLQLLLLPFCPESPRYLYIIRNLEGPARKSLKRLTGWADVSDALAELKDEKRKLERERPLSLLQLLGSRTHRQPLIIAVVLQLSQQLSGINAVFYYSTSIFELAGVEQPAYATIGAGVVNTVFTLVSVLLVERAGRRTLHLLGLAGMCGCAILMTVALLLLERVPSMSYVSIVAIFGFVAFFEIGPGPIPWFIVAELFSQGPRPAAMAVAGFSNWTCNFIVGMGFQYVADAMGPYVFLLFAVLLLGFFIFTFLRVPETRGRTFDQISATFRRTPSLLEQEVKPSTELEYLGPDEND
- method notes: Modulation of GLUT4 translocation in rat L6-GLUT4myc skeletal muscle cells assessed as increase in surface GLUT4myc level by measuring fold stimulation at 10 uM measured after 16 hrs by O-phenylenediamine assay relative to control
- Format: cell-based
- condition set: filed as modulator

Please review the entries below; each comes with its answer.
line notation: Cc1ccc(-n2cc(COC(=O)c3ccc(Cc4n[nH]c(=O)c5ccccc45)cc3)nn2)cc1
measurement: 0.9
//
line notation: O=C(OCc1cn(-c2ccc(Br)cc2)nn1)c1ccc(Cc2n[nH]c(=O)c3ccccc23)cc1
measurement: 1.54
//
line notation: Cc1ccc(-n2cc(COC(=O)c3cc(Cc4n[nH]c(=O)c5ccccc45)ccc3F)nn2)cc1
measurement: 0.98
//
line notation: O=C(NCc1cn(-c2ccc(Br)cc2)nn1)c1ccc(Cc2n[nH]c(=O)c3ccccc23)cc1
measurement: 0.89
//
line notation: O=C(NCc1cn(-c2ccc(Cl)c(Cl)c2)nn1)c1cc(Cc2n[nH]c(=O)c3ccccc23)ccc1F
measurement: 1.49

Tell me fold change (FC) reported for `O=C(OCc1cn(-c2ccc(Br)cc2)nn1)c1cc(Cc2n[nH]c(=O)c3ccccc23)ccc1F`
1.39
